Attribution: PubChem BioAssay

- Test target: Voltage-gated potassium channel subunit beta-2 (Rattus norvegicus) (UniProt P62483)
- Sequence (P62483 whole entry, looked up): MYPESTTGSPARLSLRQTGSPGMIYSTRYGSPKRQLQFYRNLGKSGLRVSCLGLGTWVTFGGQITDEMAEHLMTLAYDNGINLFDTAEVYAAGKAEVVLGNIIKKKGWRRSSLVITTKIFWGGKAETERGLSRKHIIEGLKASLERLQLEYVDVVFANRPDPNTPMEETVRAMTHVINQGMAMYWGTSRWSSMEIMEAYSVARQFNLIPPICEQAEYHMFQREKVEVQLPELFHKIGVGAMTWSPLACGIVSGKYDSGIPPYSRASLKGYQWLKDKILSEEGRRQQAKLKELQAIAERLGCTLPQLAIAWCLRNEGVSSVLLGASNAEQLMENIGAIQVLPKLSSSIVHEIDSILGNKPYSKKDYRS
- Method summary: inhibitors of rat Kvbeta2 reductase activity – biochemical, NADPH fluorescence, primary screen (AID 622);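 note: slope of raw intensity against log time taken from 70 to 1610 s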
- Conditions used: recombinant KvBeta, 4-cyanobenzaldehyde reduction, at 10 µM
Calls of active or inactive are those of the source.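 Rule for the calls: active = fluorescence slope higher than the sample average by over 3 SD (cut at about -0.22 in these data, passing the limit was not always enough); inactive = the rest.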
Your response should consist of one outcome taken from active, inactive

In: Look up the recorded call for CCOC(=O)C1=C(C)OC(N)=C(C#N)C1c1ccoc1 (stereo unspecified) in this test.
Out: inactive

In: Look up the recorded call for CCCc1nnc2n1N=C(c1ccc(OC)c(OC)c1)CS2 in this test.
Out: inactive

In: Look up the recorded call for O=C(O)CCCC(=O)Nc1nc(-c2ccc(F)cc2)cs1 in this test.
Out: inactive

More entries:
In: Look up the recorded call for Cc1oc2cc3c(C(=O)OCCN(C)C)c(C)oc3cc2c1C(=O)OCCN(C)C in this test.
Out: inactive

---

Measured inhibition accompanies every entry in the list below.
- Method summary: blockers of RIG-like receptor reporter activation – cell-based, Sendai virus stimulus, luciferase, 10K MLSCN set, TLR/RLR signaling modifier project, primary screen (AID 602276);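 note: firefly luciferase from ISG56 promoter only with Renilla not read in this screen; 0% = Sendai virus plus DMSO and 100% = medium plus DMSO without virus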
- Conditions used: HEK293 RL24 IRF3 luciferase reporter, at 10 µM, stronger effect = higher value
// return numeric value only (unit: %, not printed)

Noted for COc1ccccc1-n1c(=O)[nH]c2c(C(N)=O)nc(CC(C)C)nc21 : its inhibition reads 13

Noted for COc1cccc(CN2CCN(C(=O)c3ccco3)CC2)c1OC : its inhibition reads 11.8

Noted for Cc1cnn(Cc2ccccc2)c1N : its inhibition reads 14.7

Continue with the next molecule.
Noted for CSCCC(N=CC1=C(O)CC(C)(C)CC1=O)C(=O)O (configuration not stated) : its inhibition reads 15.3

---

- Method summary: blockers of RIG-like receptor reporter activation – cell-based, Sendai virus stimulus, luciferase, 10K MLSCN set, TLR/RLR signaling modifier project, primary screen (AID 602276);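 note: firefly luciferase from ISG56 promoter only with Renilla not read in this screen; 0% = Sendai virus plus DMSO and 100% = medium plus DMSO without virus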
- Conditions used: HEK293 RL24 IRF3 luciferase reporter, at 10 µM, stronger effect = higher value
Experimental readout: inhibition (%)
// return numeric value only (unit: %, not printed)

As a guide, the following entries are already answered.
Noted for CC(=O)Nc1ccc(NS(=O)(=O)C(F)(F)F)cc1 : its inhibition reads 3.92

Noted for c1ccc2c(c1)sc1nnnn12 : its inhibition reads 18

Noted for CCCS(=O)(=O)N1CCN(Cc2ccc(OCc3ccccc3)c(OC)c2)CC1 : its inhibition reads -20.2

Noted for Clc1ccc(Nc2ncnc3c2cnn3-c2ccccc2)cc1 : its inhibition reads -24

Noted for CCOc1ccc(N(CC(=O)OC)S(=O)(=O)c2ccc(OC)c(OC)c2)cc1 : its inhibition reads -8.61

Noted for CCN(CC)Cc1c(C(=O)OC)nnn1-c1nonc1N : its inhibition reads 4.14

Noted for CCc1cc2c(=O)n(C(C)C(=O)OC3CCCCC3)cnc2s1 (configuration not stated) : its inhibition reads -49.6

Noted for CC(C)=CCCC(C)N(C=O)C(C)CCC=C(C)C (configuration not stated) : its inhibition reads 10.3

Noted for COC(=O)c1cccc(NC(=O)CSc2nnc(COc3ccc(C#N)cc3)n2-c2ccccc2)c1 : its inhibition reads -22

Noted for COc1ccc(CCNC(=O)CSCc2n[nH]c(=O)[nH]2)cc1OC : its inhibition reads 19.2

More entries:
Noted for Nc1nnnn1/N=C/c1ccccc1OCc1ccccc1 : its inhibition reads 7.71

Noted for Cn1c(=O)[nH]c(=O)c2c1ncn2CCN1CCOCC1 : its inhibition reads 8.85
